# key: entry, value: R Lindernia dubia subsp. major Pennell (effect index)
Tested on: sulfonylurea herbicide-resistant Lindernia dubia subsp. major Pennell
assay-text: Paddy pot weeding test, flooded, two-leaf stage (Test Example 1)
Format: in vivo
recorded-conditions: 1 g/are, three weeks after treatment, resistant biotype, Kawanishi Town, Yamagata Pref.

Some molecules with recorded R Lindernia dubia subsp. major Pennell (effect index):
C=Cc1ccc2nc(Cl)c(S(=O)(=O)NC(=O)Nc3nc(OC)cc(OC)n3)n2n1 = 5 (excellent 81 to 100)
COc1cc(OC)nc(NC(=O)NS(=O)(=O)c2c(Cl)nc3ccc(C(C)C)nn23)n1 = 5 (excellent 81 to 100)
CCCCc1ccc2nc(Cl)c(S(=O)(=O)NC(=O)Nc3nc(OC)cc(OC)n3)n2n1 = 5 (excellent 81 to 100)

Input: Give the measured R Lindernia dubia subsp. major Pennell (effect index) of `COc1cc(OC)nc(S(=O)(=O)NC(=O)Nc2c(C(F)(F)F)nc3ccc(SC)nn23)n1` .
Output: 5 (excellent 81 to 100)

Input: Thanks! And `CCNc1ccc2nc(Cl)c(NC(=O)NS(=O)(=O)c3nc(OC)cc(OC)n3)n2n1` ?
Output: 5 (excellent 81 to 100)

Input: Quick one: `CCOc1ccc2nc(Cl)c(NC(=O)NS(=O)(=O)c3nc(OC)cc(OC)n3)n2n1`
Output: 4 (high 61 to 80)

* * *

Tested on: sulfonylurea herbicide-resistant Lindernia dubia subsp. major Pennell
assay-text: Paddy pot weeding test, flooded, two-leaf stage (Test Example 1)
Format: in vivo
recorded-conditions: 1 g/are, three weeks after treatment, resistant biotype, Kawanishi Town, Yamagata Pref.
Reported R Lindernia dubia subsp. major Pennell (effect index) is given for each of the following compounds.

Study these solved cases before continuing.
CCc1nc2ccc(S(C)(=O)=O)nn2c1NC(=O)NS(=O)(=O)c1nc(OC)cc(OC)n1 = 5 (excellent 81 to 100)
CCSc1ccc2nc(Cl)c(NC(=O)NS(=O)(=O)c3nc(OC)cc(OC)n3)n2n1 = 4 (high 61 to 80)
COc1cc(OC)nc(S(=O)(=O)NC(=O)Nc2c(C)nc3ccc(N(C)C)nn23)n1 = 4 (high 61 to 80)

Input: Notebook: pull reported R Lindernia dubia subsp. major Pennell (effect index) for sulfonylurea herbicide-resistant Lindernia dubia subsp. major Pennell, entry COc1cc(OC)nc(NC(=O)NS(=O)(=O)c2c(C)nc3cccnn23)n1 [comparison 1, reference compound]
Output: 1 (very slight 1 to 20)

* * *

# reported S Lindernia dubia subsp. major Pennell (effect index); entries follow
Tested on: sulfonylurea herbicide-sensitive Lindernia dubia subsp. major Pennell
assay-text: Paddy pot weeding test, flooded, two-leaf stage (Test Example 1)
Format: in vivo
recorded-conditions: 1 g/are, three weeks after treatment, sensitive biotype, Makabe Town, Ibaraki Pref.

CCSc1ccc2nc(C(F)(F)F)c(NC(=O)NS(=O)(=O)c3nc(OC)cc(OC)n3)n2n1 [Compound No. 11] = 5 (excellent 81 to 100)

Input: Item CCOc1ccc2nc(C)c(NC(=O)NS(=O)(=O)c3nc(OC)cc(OC)n3)n2n1 [Compound No. 16] with sulfonylurea herbicide-sensitive Lindernia dubia subsp. major Pennell - S Lindernia dubia subsp. major Pennell (effect index)?
Output: 5 (excellent 81 to 100)

* * *

experimental-readout: melting point

Here is how some compounds turned out for melting point.
COc1cc(OC)nc(S(=O)(=O)NC(=O)Nc2c(C(F)(F)F)nc3ccc(SC)nn23)n1 = 266 to 267 °C
COc1cc(OC)nc(S(=O)(=O)NC(=O)Nc2c(C)nc3ccc(S(C)(=O)=O)nn23)n1 = 246 to 248 °C (dec.)
CCOc1ccc2nc(C)c(NC(=O)NS(=O)(=O)c3nc(OC)cc(OC)n3)n2n1 = 168 to 170 °C (dec.)
COc1cc(OC)nc(S(=O)(=O)NC(=O)Nc2c(S(C)(=O)=O)nn3ccsc23)n1 = 190 to 201 °C
CCc1nc2ccc(Cl)nn2c1NC(=O)NS(=O)(=O)c1nc(OC)cc(OC)n1 = 174 to 175 °C

Input: # input compound: `CCNc1ccc2nc(Cl)c(NC(=O)NS(=O)(=O)c3nc(OC)cc(OC)n3)n2n1` ; wanted: its melting point
Output: 169 to 171 °C

Input: Likewise for `COc1cc(OC)nc(S(=O)(=O)NC(=O)Nc2c(C)nc3c(C)cc(N(C)C)nn23)n1` ?
Output: 266 to 268 °C (dec.)

Input: Another compound to look at: `COc1cc(C)nc(S(=O)(=O)NC(=O)Nc2c(Cl)nc3ccc(SC)nn23)n1`
Output: 172 to 174 °C

Input: // same read-out, input: `CCOc1ccc2nc(Cl)c(NC(=O)NS(=O)(=O)c3nc(OC)cc(OC)n3)n2n1`
Output: 168 to 169 °C

Input: # iterate: `CCSc1ccc2nc(C(F)(F)F)c(NC(=O)NS(=O)(=O)c3nc(OC)cc(OC)n3)n2n1`
Output: 179 to 180 °C

Input: Queued: `CCOc1ccc2nc(C(F)(F)F)c(NC(=O)NS(=O)(=O)c3nc(OC)cc(OC)n3)n2n1`
Output: 169 to 171 °C
